B1: SMG5 (parent)
chain: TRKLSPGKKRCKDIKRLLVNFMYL

variants of: B1; assay: protein stability index of a GFP-peptide fusion (GPS, HEK-293T) (PSI 1-6); higher = more stable; details: c terminus: a fixed tail appended;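 also: lentivirally expressed fusions sorted by FACS into six bins by GFP to DsRed ratio, PSI derived from sequencing read proportions per bin multiplied by bin number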
PROPERTY: protein stability index

| MUTANT LABEL | VALUE MEASURED |
| --- | --- |
| V19Y | 4.05 |
| D13P | 2.62 |
| D13L | 2.93 |
| K3E | 2.41 |
| P6G | 2.69 |
| L24Y | 2.08 |
| V19N | 2.21 |
| K3N | 2.16 |
| K15D | 1.3 |
| L18Y | 2.5 |
| K15W | 2.09 |
| N20Q | 3.52 |
| L18M | 3.27 |
| R16G | 1.71 |
| M22F | 2.29 |
| R2I | 3.09 |
| M22V | 2.33 |
| M22K | 1.86 |
| M22S | 1.39 |
| M22T | 2.11 |
| K15L | 2.08 |
| Y23V | 4.04 |
| L17G | 3.06 |
| K12R | 2.47 |
| V19T | 1.84 |
| P6Q | 3.24 |
| K8L | 2.75 |
| L24E | 1.96 |
| I14M | 2.34 |
| L4S | 1.47 |
| K9P | 2.4 |
| R10G | 3.25 |
| L4A | 1.76 |
| R16C | 2.27 |
| C11S | 1.4 |
| Y23H | 2.35 |
| R16E | 2.42 |
| K9Y | 2.15 |
| L24C | 1.39 |
| R2E | 1.04 |
| G7S | 2.17 |
| V19C | 2.31 |
| C11H | 1.58 |
| L4Y | 2.63 |
| K12Q | 2.46 |
| L24S | 1.98 |
| M22P | 2.39 |
| K15E | 3.46 |
| L18V | 2.52 |
| R16M | 4.38 |
| K8H | 3.49 |
| L17K | 2.64 |
| V19M | 2.59 |
| F21I | 3.19 |
| L24D | 1.2 |
| R10L | 3.06 |
| K12E | 4.79 |
| R2H | 1.38 |
| K15Q | 1.64 |
| R10Y | 3.14 |
| Y23I | 3.31 |
| K3W | 1.86 |
| N20Y | 2.56 |
| L24M | 3 |
| K3S | 1.59 |
| F21W | 1.91 |
| N20K | 2.12 |
| K3F | 2.44 |
| K9M | 2.31 |
| T1H | 3.62 |
| K3V | 3.52 |
| F21E | 1.75 |
| L4I | 3.12 |
| L18K | 1.54 |
| P6T | 2.59 |
| Y23M | 2.94 |
| K3L | 1.85 |
| L18Q | 1.95 |
| K3A | 2.18 |
| K15M | 2.66 |
| I14C | 3.55 |
| L17R | 1.84 |
| C11G | 1.42 |
| P6Y | 3.31 |
| K9T | 2.64 |
| K3C | 2.31 |
| C11L | 2.46 |
| I14N | 1.45 |
| R2Y | 4.16 |
| C11Y | 1.91 |
| M22N | 1.95 |
